Known T/C of a selection of compounds
tested on: L1210 leukemia ip in BDF1 mice, survival T/C; assay: NCI In Vivo Anticancer Drug Screen. Data for tumor model L1210 Leukemia (intraperitoneal) in B6D2F1 (BDF1) mice; conditions: endpoint: mean survival time; dose: 100.0 mg/kg/injection; schedule: Q01DX001 (ip); vehicle: Klucel (hydroxypropylcellulose) (HPC); higher = longer survival
Inconclusive results and toxic doses are left out.

Record excerpt, results attached:
>  <compound>
CC1(C)CC2(C)OC3(C)CC(C)(C)OC3(C)OC2(C)O1 (stereo not given)

>  <T/C>
107 % of control

$$$$
>  <compound>
Cc1ccc(S(=O)(=O)N(CCCc2c(C)nc(N)nc2Cl)c2ccccc2)cc1

>  <T/C>
86 % of control

$$$$

Report T/C for `CCOC(=O)c1sc2cc[nH]c2c1O` please.
100 % of control

Report T/C for `COc1ccc(OC)c(NC(=O)CI)c1` please.
98 % of control

Report T/C for COc1ccc(C2OCC(C)([N+](=O)[O-])CO2)cc1 (stereo not given) please.
96 % of control

====

Known T/C of a selection of molecules
test system: L1210 leukemia ip in BDF1 mice, survival T/C; assay: NCI In Vivo Anticancer Drug Screen. Data for tumor model L1210 Leukemia (intraperitoneal) in B6D2F1 (BDF1) mice; conditions: endpoint: mean survival time; dose: 200.0 mg/kg/injection; schedule: Q04DX002 (ip); vehicle: Klucel (hydroxypropylcellulose) (HPC); higher = longer survival
Inconclusive results and toxic doses are left out.

Record excerpt, results attached:
>  <molecule>
CSc1ncnc2c1ncn2C1OC(CCC(N)=O)C(O)C1O (configuration not stated)

>  <measValue>
95 % of control

$$$$
>  <molecule>
CCCCCOC(=O)C(O)C(C)(Cl)c1ccccc1 (configuration not stated)

>  <measValue>
111 % of control

$$$$
>  <molecule>
[O-][n+]1ccccc1-c1ccccc1

>  <measValue>
107 % of control

$$$$
>  <molecule>
CCS(=O)(=O)CCN1C(=O)C2C3CCC(O3)C2C1=O (configuration not stated)

>  <measValue>
95 % of control

$$$$
>  <molecule>
CCCCCCCCCCc1nc(N)nc(NCCc2ccccc2)n1

>  <measValue>
89 % of control

$$$$
>  <molecule>
Cc1cccc(Nc2nc(N)nc(N)c2N=O)c1

>  <measValue>
94 % of control

$$$$

API: the following record is the query input.
What measured T/C is associated with `COC(=O)C(=O)CC(=O)c1cccc(C)c1` on L1210 leukemia ip in BDF1 mice, survival T/C?
103 % of control

====

system: L1210 leukemia ip in BDF1 mice, survival T/C; experiment: NCI In Vivo Anticancer Drug Screen. Data for tumor model L1210 Leukemia (intraperitoneal) in B6D2F1 (BDF1) mice; settings: endpoint: mean survival time; dose: 200.0 mg/kg/injection; schedule: Q04DX002 (ip); vehicle: saline with Tween-80; higher = longer survival
Inconclusive results and toxic doses are left out.
Known T/C of a selection of molecules

Record excerpt, results attached:
>  <molecule>
COc1ccc(C=Nc2ccc(C(=O)O)cc2)cc1

>  <measure>
T/C

>  <measValue>
110 % of control

$$$$
>  <molecule>
Cc1ccc(C(C)(C)[CH2][Sn]([CH2]C(C)(C)c2ccc(C)cc2)([CH2]C(C)(C)c2ccc(C)cc2)[CH2]C(C)(C)c2ccc(C)cc2)cc1

>  <measure>
T/C

>  <measValue>
103 % of control

$$$$

API: the following record is the query input.
Report T/C for O=C1c2cccc3cc([N+](=O)[O-])cc(c23)C(=O)N1C(Cc1ccccc1)c1ccccc1 (stereo unspecified) please.
95 % of control

These measurements were taken from PubChem BioAssay AID248.
